Cited source for all entries: BindingDB's records for doi:10.7270/Q2PG1Q6D

Target: UniProt:O15151
Sequence (O15151 whole entry): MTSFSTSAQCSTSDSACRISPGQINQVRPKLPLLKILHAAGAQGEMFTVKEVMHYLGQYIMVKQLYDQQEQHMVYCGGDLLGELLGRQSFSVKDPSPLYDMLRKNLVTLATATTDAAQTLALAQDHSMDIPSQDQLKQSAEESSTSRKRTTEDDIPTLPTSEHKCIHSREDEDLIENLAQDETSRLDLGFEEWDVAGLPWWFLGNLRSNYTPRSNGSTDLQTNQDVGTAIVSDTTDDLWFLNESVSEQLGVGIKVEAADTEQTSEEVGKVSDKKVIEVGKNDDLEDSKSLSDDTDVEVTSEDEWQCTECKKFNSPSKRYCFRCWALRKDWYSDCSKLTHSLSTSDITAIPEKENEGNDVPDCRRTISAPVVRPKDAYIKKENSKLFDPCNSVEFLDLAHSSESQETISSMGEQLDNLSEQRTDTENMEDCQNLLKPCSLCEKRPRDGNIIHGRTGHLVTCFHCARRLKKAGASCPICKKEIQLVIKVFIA
Assay: Mdm2-MdmX interaction inhibitors, dose response, luminescence detection (AID 504593)
assay_endpoint: IC50 (µM)
Number only, in µM; omit the unit.

Task: What is its IC50 for UniProt:O15151? Entry: Cc1cc(N=NC(C)c2ccccc2O)nc(-c2ccccc2O)n1 (stereo unspecified)
Result: 6.71
